target: M. abscessus PPAT (Mycobacteroides abscessus); assay type: binding, Mycobacterium abscessus; conditions: Table 1; 10 μM PPAT, 5 mM compound, 5% DMSO
A collection of compounds and their measured ΔΤm
measurement_name: ΔΤm

smiles_notation=O=C(O)c1ccc2[nH]nc(Br)c2c1 target_or_system="M. abscessus PPAT (Mycobacteroides abscessus)" measurement_name=ΔΤm observed_result="+12.5 °C"
smiles_notation=Cc1ccc(C(=O)O)c(C(=O)O)n1 target_or_system="M. abscessus PPAT (Mycobacteroides abscessus)" measurement_name=ΔΤm observed_result="+2.0 °C"
smiles_notation=Cc1cn(CCC(=O)O)c2ccccc12 target_or_system="M. abscessus PPAT (Mycobacteroides abscessus)" measurement_name=ΔΤm observed_result="+0.5 °C"
smiles_notation=O=C(O)CCn1ccc2ccccc21 target_or_system="M. abscessus PPAT (Mycobacteroides abscessus)" measurement_name=ΔΤm observed_result="+1 °C"

---

molecular target: M. abscessus PPAT (Mycobacteroides abscessus, UniProt B1MDL6); type: binding, Mycobacterium abscessus; conditions: Table 1; 10 μM PPAT, 5 mM compound, 5% DMSO
Sequence (B1MDL6 whole entry): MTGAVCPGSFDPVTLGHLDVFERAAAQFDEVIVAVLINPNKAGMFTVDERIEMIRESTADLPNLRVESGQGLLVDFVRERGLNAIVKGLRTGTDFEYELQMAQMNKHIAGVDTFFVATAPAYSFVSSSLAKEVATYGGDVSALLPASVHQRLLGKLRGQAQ
measurement_name: ΔΤm

compound="O=C(O)c1ccccc1C(=O)c1ccc(Cl)c([N+](=O)[O-])c1 [Fragment 6]" measurement_name=ΔΤm observed_result="+4.5 °C"
compound="O=C(O)c1cc2ccccc2cc1O [Fragment 11]" measurement_name=ΔΤm observed_result="+2.0 °C"
compound="N#Cc1ccc(Cl)cc1N [Fragment 13]" measurement_name=ΔΤm observed_result="+1.5 °C"
compound="O=C(O)Cn1ccc2ccccc21 [Fragment 16]" measurement_name=ΔΤm observed_result="-0.5 °C"
compound="O=C(O)C(O)Cc1c[nH]c2ccccc12 (stereo not drawn) [Fragment 12]" measurement_name=ΔΤm observed_result="+1.5 °C"
compound="O=C(O)C(O)c1cccc(Oc2ccccc2)c1 (stereo not drawn) [Fragment 4]" measurement_name=ΔΤm observed_result="+2.5 °C"

---

target: Mab PPAT (Mycobacteroides abscessus, UniProt B1MDL6); assay: Isothermal titration calorimetry (ITC) on Mab PPAT; type: binding, Mycobacterium abscessus; conditions: ITC, Mab PPAT, 50 mM Tris-HCl pH 8.0, 150 mM NaCl; read-out: Kd
pKd: −log10 of the molar value.
// reported pKd for each item listed
measurement_name: pKd

smiles_notation=Cc1c(C(=O)O)cnn1-c1ccccc1 target_or_system="Mab PPAT (Mycobacteroides abscessus, UniProt B1MDL6)" measurement_name=pKd observed_result=3.27
smiles_notation=O=C(O)CCc1c[nH]c2ccccc12 target_or_system="Mab PPAT (Mycobacteroides abscessus, UniProt B1MDL6)" measurement_name=pKd observed_result=2.49

Entry source: paper PMC9197168
